Where do the numbers come from? From patent US7964607B2.

Parameter IC50: see the listing below.
system: human recombinant PDE9 enzyme (Homo sapiens, UniProt O76083)
Construct: made in house; host or cells: SF-9 insect cells
Sequence (O76083 whole entry): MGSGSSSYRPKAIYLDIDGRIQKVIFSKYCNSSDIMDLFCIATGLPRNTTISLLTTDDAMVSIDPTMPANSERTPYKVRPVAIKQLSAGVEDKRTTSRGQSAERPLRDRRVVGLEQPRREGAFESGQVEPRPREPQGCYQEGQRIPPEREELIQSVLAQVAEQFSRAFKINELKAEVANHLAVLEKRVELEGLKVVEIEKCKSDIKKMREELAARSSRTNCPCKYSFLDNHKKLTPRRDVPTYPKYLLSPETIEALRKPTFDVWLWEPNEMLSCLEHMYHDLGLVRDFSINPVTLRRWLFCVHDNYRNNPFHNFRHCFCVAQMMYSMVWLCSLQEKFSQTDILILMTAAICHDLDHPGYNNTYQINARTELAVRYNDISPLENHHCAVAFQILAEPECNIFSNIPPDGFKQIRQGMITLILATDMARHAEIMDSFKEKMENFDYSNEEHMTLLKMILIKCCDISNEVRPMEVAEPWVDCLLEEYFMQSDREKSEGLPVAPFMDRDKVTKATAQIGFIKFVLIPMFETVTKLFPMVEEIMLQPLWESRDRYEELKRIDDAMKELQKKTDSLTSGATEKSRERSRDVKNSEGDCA
assay: Phosphodiesterase 9 (PDE9) inhibitory activity, Scintillation Proximity (SPA) assay
Type: biochemical
assaySetup: human recombinant PDE9 from SF-9 cells; 50 nM [3H]cGMP; room temperature, 30 min; additional compounds Ex. 115-228; read-out: G5678A (U):IC50
measurementKind: IC50 (nM)

compound="C[C@@H]1CN(Cc2ccc(C(C)(C)O)nc2)C[C@H]1c1nc2c(cnn2C2CCCC2)c(=O)[nH]1 (racemic)" measuredresult=42
compound="C[C@@H]1CN(Cc2cccc(F)c2F)C[C@H]1c1nc2c(cnn2C2CCCC2)c(=O)[nH]1 (racemic)" measuredresult=61.7
compound="C[C@@H]1CN(Cc2ccc3ccccc3c2)C[C@H]1c1nc2c(cnn2C2CCCC2)c(=O)[nH]1 (racemic)" measuredresult=54.5
compound="COc1ccc(OC)c(CN2C[C@@H](C)[C@H](c3nc4c(cnn4C4CCCC4)c(=O)[nH]3)C2)c1 (racemic)" measuredresult=99.6
compound="CCOc1ccc(CN2C[C@@H](C)[C@H](c3nc4c(cnn4C4CCCC4)c(=O)[nH]3)C2)cc1 (racemic)" measuredresult=64
compound="Cc1cc(C)cc(CN2C[C@@H](C)[C@H](c3nc4c(cnn4C4CCCC4)c(=O)[nH]3)C2)c1 (racemic)" measuredresult=53.5

====

Parameter pIC50: see the listing below.
system: human recombinant PDE9 enzyme (Homo sapiens)
Construct: made in house; host or cells: SF-9 insect cells
assay: Phosphodiesterase 9 (PDE9) inhibitory activity, Scintillation Proximity (SPA) assay
Assay type: biochemical
assaySetup: human recombinant PDE9 from SF-9 cells; 50 nM [3H]cGMP; room temperature, 30 min; additional compounds Ex. 115-228; read-out: G5678A (U):IC50
pIC50: −log10 of the molar value.
measurementKind: pIC50

molecule="CCOc1ccccc1CN1C[C@@H](C)[C@H](c2nc3c(cnn3C3CCCC3)c(=O)[nH]2)C1 (racemic) [Example 139]" measurementkind=pIC50 measuredresult=7.01
molecule="COc1cccc(CN2C[C@@H](C)[C@H](c3nc4c(cnn4C4CCCC4)c(=O)[nH]3)C2)c1 (racemic) [Example 204]" measurementkind=pIC50 measuredresult=8.02
molecule="C[C@@H]1CN(Cc2cc(F)cc(F)c2)C[C@H]1c1nc2c(cnn2C2CCCC2)c(=O)[nH]1 (racemic) [Example 227]" measurementkind=pIC50 measuredresult=8.13
molecule="Cc1cc(CN2CC(C)C(c3nc4c(cnn4C4CCCC4)c(=O)[nH]3)C2)n(C)n1 (stereo not drawn) [Example 133]" measurementkind=pIC50 measuredresult=7.47
molecule="Cc1ncc(CN2C[C@@H](C)[C@H](c3nc4c(cnn4C4CCCC4)c(=O)[nH]3)C2)cn1 (racemic) [Example 167]" measurementkind=pIC50 measuredresult=7.39
molecule="Cc1cnc(CN2C[C@@H](C)[C@H](c3nc4c(cnn4C4CCCC4)c(=O)[nH]3)C2)cn1 (racemic) [Example 177]" measurementkind=pIC50 measuredresult=7.37
molecule="Cc1nc(C)c(CN2C[C@@H](C)[C@H](c3nc4c(cnn4C4CCCC4)c(=O)[nH]3)C2)nc1C (racemic) [Example 212]" measurementkind=pIC50 measuredresult=8.00
molecule="Cc1cc(CN2C[C@@H](C)[C@H](c3nc4c(cnn4C4CCCC4)c(=O)[nH]3)C2)no1 (racemic) [Example 145]" measurementkind=pIC50 measuredresult=7.11
molecule="C[C@@H]1CN(Cc2ccc(OC(F)F)cc2)C[C@H]1c1nc2c(cnn2C2CCCC2)c(=O)[nH]1 (racemic) [Example 159]" measurementkind=pIC50 measuredresult=7.22
molecule="COc1ccc(CN2C[C@@H](C)[C@H](c3nc4c(cnn4C4CCCC4)c(=O)[nH]3)C2)cc1OC (racemic) [Example 176]" measurementkind=pIC50 measuredresult=7.57
molecule="C[C@@H]1CN(Cc2c(F)cccc2Cl)C[C@H]1c1nc2c(cnn2C2CCCC2)c(=O)[nH]1 (racemic) [Example 117]" measurementkind=pIC50 measuredresult=6.90
molecule="C[C@@H]1CN(Cc2cccc(-n3cccn3)n2)C[C@H]1c1nc2c(cnn2C2CCCC2)c(=O)[nH]1 (racemic) [Example 135]" measurementkind=pIC50 measuredresult=7.04
molecule="C[C@@H]1CN(Cc2ccc(-n3cncn3)cc2)C[C@H]1c1nc2c(cnn2C2CCCC2)c(=O)[nH]1 (racemic) [Example 140]" measurementkind=pIC50 measuredresult=7.57
molecule="CC(C)Oc1ccc(CN2C[C@@H](C)[C@H](c3nc4c(cnn4C4CCCC4)c(=O)[nH]3)C2)cc1 (racemic) [Example 188]" measurementkind=pIC50 measuredresult=7.14
molecule="C[C@@H]1CN(Cc2cccc(OC(F)F)c2)C[C@H]1c1nc2c(cnn2C2CCCC2)c(=O)[nH]1 (racemic) [Example 183]" measurementkind=pIC50 measuredresult=7.53
molecule="CCc1ncc(CN2C[C@@H](C)[C@H](c3nc4c(cnn4C4CCCC4)c(=O)[nH]3)C2)cn1 (racemic) [Example 168]" measurementkind=pIC50 measuredresult=7.51
molecule="COc1c(C)cnc(CN2C[C@@H](C)[C@H](c3nc4c(cnn4C4CCCC4)c(=O)[nH]3)C2)c1C (racemic) [Example 196]" measurementkind=pIC50 measuredresult=6.73
molecule="C[C@@H]1CN(Cc2cc(F)ccc2F)C[C@H]1c1nc2c(cnn2C2CCCC2)c(=O)[nH]1 (racemic) [Example 156]" measurementkind=pIC50 measuredresult=7.39
molecule="C[C@@H]1CN(Cc2cccc(Cl)c2Cl)C[C@H]1c1nc2c(cnn2C2CCCC2)c(=O)[nH]1 (racemic) [Example 164]" measurementkind=pIC50 measuredresult=7.10
molecule="CC(C)c1csc(CN2C[C@@H](C)[C@H](c3nc4c(cnn4C4CCCC4)c(=O)[nH]3)C2)n1 (racemic) [Example 132]" measurementkind=pIC50 measuredresult=7.43
molecule="C[C@@H]1CN(Cc2ccc3c(c2)CC(C)(C)O3)C[C@H]1c1nc2c(cnn2C2CCCC2)c(=O)[nH]1 (racemic) [Example 175]" measurementkind=pIC50 measuredresult=7.13
molecule="C[C@@H]1CN(Cc2cnn3c2CCC3)C[C@H]1c1nc2c(cnn2C2CCCC2)c(=O)[nH]1 (racemic) [Example 228]" measurementkind=pIC50 measuredresult=7.31
molecule="C[C@@H]1CN(Cc2cc3ccccc3nn2)C[C@H]1c1nc2c(cnn2C2CCCC2)c(=O)[nH]1 (racemic) [Example 182]" measurementkind=pIC50 measuredresult=7.65
molecule="C[C@@H]1CN(Cc2ccccc2OC(F)F)C[C@H]1c1nc2c(cnn2C2CCCC2)c(=O)[nH]1 (racemic) [Example 119]" measurementkind=pIC50 measuredresult=7.48
molecule="C[C@@H]1CN(Cc2ccc(Cl)cc2F)C[C@H]1c1nc2c(cnn2C2CCCC2)c(=O)[nH]1 (racemic) [Example 154]" measurementkind=pIC50 measuredresult=6.76
molecule="C[C@@H]1CN(Cc2cnn3c2CCCC3)C[C@H]1c1nc2c(cnn2C2CCCC2)c(=O)[nH]1 (racemic) [Example 121]" measurementkind=pIC50 measuredresult=7.08
molecule="Cc1c(F)cccc1CN1C[C@@H](C)[C@H](c2nc3c(cnn3C3CCCC3)c(=O)[nH]2)C1 (racemic) [Example 166]" measurementkind=pIC50 measuredresult=7.17
